Test system: AR
experimentalDetails: AR expression in LNCaP cells (Western and Northern blotting)
Format: cell-based, human
conditionNotes: Western blotting, 10 μM VES, Suc or SM, 10 nM Vit D
recordedMetric: AR expression at the protein level

> print(dat)
                                   molecule                      recordedmetric  result
1  C=C1/C(=C\C=C2/CCC[C@]3(C)[C@@H]([C@H](C)CCCC(C)(C)O)CC[C@@H]23)C[C@@H](O)C[C@@H]1O [Vit D, 1α, 25-dihydroxyvitamin D3]  AR expression at the protein level     not
2       O=C(O)CCC(=O)O [Suc, succinic acid]  AR expression at the protein level     not

All figures here come from patent US20040248971A1.
